Each entry below carries its reported cell viability.
Test system: KG-1
EXPERIMENT_NOTES: cell viability (% survival relative to DMSO control, bortezomib = 0%); higher = less cytotoxic
MEASUREMENT_CONDITIONS: 100 nM; 72 h
Your answer should be a plain number; it is taken to be in %.

Examples from the recorded data:
COMPOUND_STRING	SUBJECT_OF_TEST	cell viability [%]
Cc1cc2c(C(C)C)c(O)c(O)c(C=O)c2c(O)c1-c1c(C)cc2c(C(C)C)c(O)c(O)c(C=O)c2c1O	KG-1	105
CCOC(=O)c1sc(NC(=O)c2ccco2)c(SC#N)c1C	KG-1	103
CCc1oc2ccccc2c1C(=O)c1cc(Br)c(O)c(Br)c1	KG-1	102
COC(=O)c1cc2c(C(F)(F)F)cc(-c3ccccc3)cc2n1O	KG-1	100

Request: Provide one value: measured cell viability of CCn1c(=Cc2cccc[n+]2CC)sc(=C2Sc3ccccc3N2C)c1=O
Result: 138

Request: Tell me measured cell viability for CC(C)(C)c1ccc(S(=O)(=O)NCc2ccc(C(=O)Nc3cccnc3)cc2)cc1 please.
Result: 72.6

Request: Specify cell viability for O=C(O)CC[N+](=O)[O-] and stop.
Result: 97.3

Request: Quickly give me recorded cell viability for Cc1c2c(=O)n(-c3ccccc3Cl)[nH]c2cc(=O)n1Cc1ccccn1
Result: 89.6

Request: Look up cell viability of CO[C@H]1C[C@@H]2CC[C@@H](C)[C@@](O)(O2)C(=O)C(=O)N2CCCC[C@H]2C(=O)O[C@H]([C@H](C)C[C@@H]2CC[C@@H](OCCO)[C@H](OC)C2)CC(=O)[C@H](C)/C=C(\C)[C@@H](O)[C@@H](OC)C(=O)[C@H](C)C[C@H](C)/C=C/C=C/C=C/1C and report it.
Result: 41

Request: In one line, give reported cell viability of the entry Cn1cc(-c2ccncc2)c(-c2ccc(OCc3ccc4ccccc4n3)cc2)n1 .
Result: 110

Request: Consider the compound Cc1[nH]nc(C(F)(F)F)c1Cc1sc2c(c1C(=O)N1C[C@](C)(O)CO1)c(=O)n(C)c(=O)n2C(C)C and give its recorded cell viability.
Result: 124

Data credit: the supplement of paper PMC8671470
